EXPERIMENTAL TARGET: SARS-CoV-2 S on pseudovirions (Wuhan Hu-1 / IL1/2020, last 18 amino acids removed) (SARS-CoV-2, UniProt P0DTC2 14-1273)
MEASUREMENT DESCRIPTION: cell-based or functional assay
Here, each record is paired with measured Mean IC80, pSV neutralization data.
ENDPOINT NAME: Mean IC80, pSV neutralization

| BINDER | ENDPOINT NAME | OBSERVED |
| --- | --- | --- |
| COV_1201 (antibody, V domains shown, human IgG1) VH: QVQLVQSGAEVKKPGASMKVSCKASGYTFTGYYIHWVRQAPGQGLEWMGRINPNSGGTNYAQKFQGRVTMTRDTSISTAYMELSRLRSDDTAVYYCAREYYYVPYGMDVWGQGTTVTVSS VL: QSALTQPASVSGSPGQSITISCTGTSSDVGGYNFVSWYQHHPGKAPKLMIYEVSNRPSGVSNRFSGSKSGNTASLTISGLQAEDEADYYCSSYTSSSTYVFGTGTKVTVL | Mean IC80, pSV neutralization | 0.3 µg/ml |
| COV_1149 (antibody, V domains shown, human IgG1) VH: QVQLVESGGGVVQPGRSLRLSCAASGFTFSSYGMHWVRQAPGKGLEWVAVISYDGSNKYYADSVKGRFTISRDNSKNTLYLQMNSLRAEDTAVYYCAKTGGGYSYGLGNVWGQGTLVTVSS VL: QSALTQPASVSGSPGQSITISCTGTSSDVGGYNYVSWYQQHPGKAPKLMIYDVSNRPSGVSNRFSGSKSGNTASLTISGLQAEDEADYYCSSYTSSSTLVVFGGGTKLTVLG | Mean IC80, pSV neutralization | ≥ 25 µg/ml |
| COV_2093 (antibody, V domains shown, human IgG1) VH: EVQLVESGGGLVQPGGSLRLSCAASGFMFNRFWMSWVRQAPGKGLEWVTNIKQDGSEKNYVDSVKGRFTISRDNAKNSLYLQMNSLRAEDTAVYYCARDGLYYDFRSPSPFYGMDVWGQGTTVTVSS VL: DIQMTQSPSSLSASVGDRVTITCRASQSISSYLNWYQHKSGKAPKLLIYAASRLQSGVPSRFSGSGSGTDFTLTIVSLQPEDLATYYCQQSYSTPRTFGGGTKVEIKR | Mean IC80, pSV neutralization | ≥ 25 µg/ml |
